target: MAGI2_2, Q86UL8; test: holdup assay; parameters: key: below the threshold = too weak to quantify, mostly under pKd 3.1 to 4; settings: plain residues with an end cap or a label only (N-terminal biotin on a linker: ttds)
Sequence (Q86UL8 410-522): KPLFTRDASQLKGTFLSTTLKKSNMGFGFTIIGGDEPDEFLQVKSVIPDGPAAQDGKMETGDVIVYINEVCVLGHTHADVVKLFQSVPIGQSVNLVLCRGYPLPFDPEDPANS
Observation Type: pKd
Numbers only.

Binder	pKd
SRPQRTQTQV [HPV67-E6, A4U7F2]	5.32
ERKLSSESQV [LRP4, O75096]	4.79
SSRTRRETQL [HPV16-E6, P03126]	4.87

Kindly review the next binder as well.
Q: // lookup pKd for VLRLQSETSV [VANGL1, Q8TAA9]
Result: 4.47
